B1: library; a variant is named by its letters at N, in order (parent)
chain: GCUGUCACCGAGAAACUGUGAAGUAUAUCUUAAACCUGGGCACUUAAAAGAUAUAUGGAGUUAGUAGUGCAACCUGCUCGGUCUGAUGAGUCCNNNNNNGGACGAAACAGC

Variants of: B1
METHOD_SUMMARY: normalized RNA/DNA level without ligand (relative to sTRSVctl = 100) (log10 (% of sTRSVctl)); HEK293T; ligand: cyclic di-GMP (c-di-GMP-II aptamer); higher = less ribozyme self-cleavage, higher mRNA level
TEST_CONTEXT: reporter: mCherry (pCS4076), ligand present: no
REPORTED_ENDPOINT: normalized RNA/DNA level without ligand (log10)
Give the figure by itself; no unit, no explanation.

// known answers, use as guide
[[record]]
sequence_entry = "GCUGUCACCGAGAAACUGUGAAGUAUAUCUUAAACCUGGGCACUUAAAAGAUAUAUGGAGUUAGUAGUGCAACCUGCUCGGUCUGAUGAGUCCACAAAAGGACGAAACAGC"
recorded_measurement = 1.31

[[record]]
sequence_entry = "GCUGUCACCGAGAAACUGUGAAGUAUAUCUUAAACCUGGGCACUUAAAAGAUAUAUGGAGUUAGUAGUGCAACCUGCUCGGUCUGAUGAGUCCGCGUAUGGACGAAACAGC"
recorded_measurement = 1.48

[[record]]
sequence_entry = "GCUGUCACCGAGAAACUGUGAAGUAUAUCUUAAACCUGGGCACUUAAAAGAUAUAUGGAGUUAGUAGUGCAACCUGCUCGGUCUGAUGAGUCCAAUUGCGGACGAAACAGC"
recorded_measurement = 1.7

[[record]]
sequence_entry = "GCUGUCACCGAGAAACUGUGAAGUAUAUCUUAAACCUGGGCACUUAAAAGAUAUAUGGAGUUAGUAGUGCAACCUGCUCGGUCUGAUGAGUCCCUCCAUGGACGAAACAGC"
recorded_measurement = 1.58

[[record]]
sequence_entry = "GCUGUCACCGAGAAACUGUGAAGUAUAUCUUAAACCUGGGCACUUAAAAGAUAUAUGGAGUUAGUAGUGCAACCUGCUCGGUCUGAUGAGUCCCAUGCCGGACGAAACAGC"
recorded_measurement = 1.79


Challenge: Given the entry GCUGUCACCGAGAAACUGUGAAGUAUAUCUUAAACCUGGGCACUUAAAAGAUAUAUGGAGUUAGUAGUGCAACCUGCUCGGUCUGAUGAGUCCCAAACAGGACGAAACAGC , report its measured normalized RNA/DNA level without ligand (log10).
Response given: 1.34

Challenge: Moving on to the next variant: GCUGUCACCGAGAAACUGUGAAGUAUAUCUUAAACCUGGGCACUUAAAAGAUAUAUGGAGUUAGUAGUGCAACCUGCUCGGUCUGAUGAGUCCGCCCCGGGACGAAACAGC
Response given: 1.8

Challenge: Moving on to the next variant: GCUGUCACCGAGAAACUGUGAAGUAUAUCUUAAACCUGGGCACUUAAAAGAUAUAUGGAGUUAGUAGUGCAACCUGCUCGGUCUGAUGAGUCCCAUACGGGACGAAACAGC
Response given: 1.81

Challenge: Moving on to the next variant: GCUGUCACCGAGAAACUGUGAAGUAUAUCUUAAACCUGGGCACUUAAAAGAUAUAUGGAGUUAGUAGUGCAACCUGCUCGGUCUGAUGAGUCCCCUACCGGACGAAACAGC
Response given: 1.76

Challenge: Moving on to the next variant: GCUGUCACCGAGAAACUGUGAAGUAUAUCUUAAACCUGGGCACUUAAAAGAUAUAUGGAGUUAGUAGUGCAACCUGCUCGGUCUGAUGAGUCCCCCUUGGGACGAAACAGC
Response given: 1.64

Challenge: Moving on to the next variant: GCUGUCACCGAGAAACUGUGAAGUAUAUCUUAAACCUGGGCACUUAAAAGAUAUAUGGAGUUAGUAGUGCAACCUGCUCGGUCUGAUGAGUCCUACCUGGGACGAAACAGC
Response given: 1.72

Challenge: Moving on to the next variant: GCUGUCACCGAGAAACUGUGAAGUAUAUCUUAAACCUGGGCACUUAAAAGAUAUAUGGAGUUAGUAGUGCAACCUGCUCGGUCUGAUGAGUCCAGCAUGGGACGAAACAGC
Response given: 1.53

Challenge: Moving on to the next variant: GCUGUCACCGAGAAACUGUGAAGUAUAUCUUAAACCUGGGCACUUAAAAGAUAUAUGGAGUUAGUAGUGCAACCUGCUCGGUCUGAUGAGUCCAGGCUGGGACGAAACAGC
Response given: 1.77
